# Protocol: amyloid nucleation score (Sup35N fusion, yeast selection) (log enrichment); library NNK1; higher = more nucleation; inactive = no reads after selection;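 also: zero at mode of non-aggregating sequences after 7 days selection at 30°C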
Readout: amyloid nucleation score

1. GLACYM
0.413
2. NNPDTMSI
0.44
3. ANSVRWTCMLVIIFQYRPTS
2.5
4. RANSGNVTFMVRPAFMVVLK
-0.389
5. SLFEFWSDNFNQEQ
1.49
6. NSYFWSGEIIIEYQRP
-1.23
7. LSGVLGSVAFAYIRPRTGFG
-0.143
8. YYIEVLILCWACQNALSRAS
0.5
9. LPCYSSLQSLGQRMQVKG
0.025
10. WLWINPMEVDYGVLTRLEKT
-0.213
11. DFLRIRVAKKSLDMGFIV
-0.251
12. VLSVNAV
-0.482
13. KLCQVRHVSWIMSCQRYKQD
0.058
14. LRSLAPCVLGKTGESEPRAF
0.056
15. IWMIAQDGFNFQLSNR
0.282
16. FQGVGDIGSVLHAMFLCYGS
2.94
17. RENYRAGTFVYGSPRLGPAW
0.44
18. CAVTDVRIIIHF
2.15
19. FSSCVNDFLGGRPPSKVLSF
0.068
20. FVGIQHRMSYWLCGRHAIVI
0.965
21. LVGPAVVSYCCIRLISVVD
1.94
22. LHQVMAWCMGEKWAETRSPW
-0.703
23. IPLGPGLPACINEGLKNPVS
-0.439
24. FRGRDSCGHH
0.101
25. PTGVMM
-0.338
26. KSDVAARVCDER
0.526
27. TIFVYSKTNL
2.64
28. GRLMTFSINRRNVWKCDGSR
-0.207
29. GPSLFG
0.121
30. RNTRTDSSTQTLLIVSHH
0.011
31. APFHEGNIFRAVTFKTYPSR
-0.422
32. EYNGCYFPRIM
0.628
33. SLSMLTARGLILNMCNGMRF
1.52
34. TYRDKNNVRFKRFLGKRTAC
-1.22
35. TDYSFKLFTFFSSESNGFPI
-1.01
36. GTDRSLAVIFKARCWFWATR
-1.14
37. CGGFRNMRVPVHLVPACRW
0.334
38. GSSDPHVLVN
0.341
39. EDMWKTCTAV
0.244
40. LCEFSPLSCGCYGRDPHVPP
-0.73
41. TDEVDDIQF
0.552
42. WGEFYVNSSNFVNMQSVWQQ
-0.257
43. SSSRNLVSSRCLQVYLPMHA
0.986

###

# Protocol: amyloid nucleation score (Sup35N fusion, yeast selection) (log enrichment); library NNK2; higher = more nucleation; inactive = no reads after selection
I'd appreciate it if you could label each record using amyloid nucleation score and these ranges: LOW = under -0.2, MEDIUM = from -0.2 up to 0.8, HIGH = 0.8 and over

1) GRSFFMF
HIGH
2) LVGDRNDVLPVFVRSRRRVP
MEDIUM
3) SYAYVSKMYVKYCQLKFI
LOW
4) LITINLSV
HIGH
5) MDTSYMVLCYKSQRRRSGSR
MEDIUM
6) CILSYVQEMTMEPYLSKSLS
LOW
7) QVRELVVLNSMGYPSSW
MEDIUM
8) GPNDWRNCFRD
MEDIUM
9) SLEGKSWGCSTSNSLKGDKG
MEDIUM
10) FLMFQNGCFLNDILVLRNAR
LOW
11) LMSYVSSRNVSLQFIFVLPL
HIGH
12) PMNFYYIAPNICGLREKLWS
HIGH
13) IDFSRQTYLNCKKSRSSLLS
LOW
14) SSASLGVAV
LOW
15) VYNLARSRSKAERVV
MEDIUM
16) VPWLNGRVVASRKDKTRSSR
MEDIUM
17) YTVLWRCTFTKARVFGCVSL
MEDIUM
18) VVRAVYGYQFYGIVL
MEDIUM
19) AGMPCKFIRARSSPYFRALC
MEDIUM
20) VMRMWRVSMRF
HIGH
21) NMVHNDRSRKVKLSWCATFK
HIGH
22) LGFMNCSLMHAGRVGPREHF
HIGH
23) IMYCCVMLIFTMSVVEWGFT
LOW
24) VQMGRPWTGALMVSYMIVNH
HIGH
25) YGTWKVRKCGLSIFGVGGPD
LOW
26) RETLAFA
LOW
27) GVCVQGMFSVSYATILYKVA
HIGH
28) QCYVIYS
HIGH
29) VTSGGLEWSRD
HIGH
30) HYYLSTVSVYIGMPIRWFSG
MEDIUM
31) VNWLCRSWRSNRSLEG
HIGH
32) SVLIFATRKCLYFYLGFMR
LOW
33) PTSNLSWVT
HIGH
34) IRFWSKSGFVQGCSIRISLS
MEDIUM
35) NASPFSHKYHEWFEVEGSSI
MEDIUM
36) LRFPRWSPADGDSILHTTSQ
MEDIUM
37) FSEYWVLSELVMVNKGVIWM
LOW
38) DRLLHDTE
LOW
39) TGLTLVV
MEDIUM
40) FYWRFTFRLVCRFCYTRHLK
LOW
41) IAIFWSYWGDVIVYSGMVLE
MEDIUM
42) RIVGDLICDVSSSQISTSHT
LOW
43) RYNLARSLLFHHNTCVFMSV
LOW
44) CLGGNHYHPSSTVTEQRYLT
HIGH
45) RTWSIFIASVKYVKV
LOW
46) FEFSPQSRCTGFLSVVCMVE
MEDIUM
47) HGKCVFGLPVLLQWKLGDQT
MEDIUM
